target or test system: CYP2E1 (Rattus norvegicus, UniProt P05182)
Sequence (P05182 whole entry): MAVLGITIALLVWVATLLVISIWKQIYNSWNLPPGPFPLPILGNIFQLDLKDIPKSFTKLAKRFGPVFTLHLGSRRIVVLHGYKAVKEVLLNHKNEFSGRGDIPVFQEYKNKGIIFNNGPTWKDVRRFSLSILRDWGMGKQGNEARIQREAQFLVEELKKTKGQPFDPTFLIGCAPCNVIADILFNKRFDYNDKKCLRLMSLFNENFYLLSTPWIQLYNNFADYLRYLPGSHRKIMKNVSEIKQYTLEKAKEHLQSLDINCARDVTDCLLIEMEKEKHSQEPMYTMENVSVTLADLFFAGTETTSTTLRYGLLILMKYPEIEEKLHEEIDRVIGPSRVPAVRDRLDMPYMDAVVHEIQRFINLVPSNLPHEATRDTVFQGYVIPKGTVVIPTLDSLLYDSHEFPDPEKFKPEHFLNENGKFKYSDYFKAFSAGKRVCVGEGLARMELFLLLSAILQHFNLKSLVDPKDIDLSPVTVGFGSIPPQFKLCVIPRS
procedure details: in vitro
assay context: rat, microsomes, pH 7.4
Listing of entries alongside the reported inhibition at 60 min, 4 µM.
Output should be the measured figure followed by the unit it is expressed in.

O=c1c(O)c(-c2ccc(O)cc2)oc2cc(O)cc(O)c12 [Kaempferol, kaempferol]: 16.5%
Cc1ncsc1CCCl [Clomethiazole, clomethiazole, reference compound]: 85.4%

Inquiry: Dear colleague, I am looking for the recorded inhibition at 60 min, 4 µM of the following molecule: O=c1c(O)c(-c2ccc(O)c(O)c2)oc2cc(O)cc(O)c12 [Quercetin, quercetin]
Reply text: 12.5%

###

Tested on: CYP3A4
procedure details: Testosterone 6β-hydroxylation assay for CYP3A4 in rat liver microsomes
assay context: rat, microsomes, pH 7.4
Mark yes for reported inhibition at 45 min, 0.1 µM of 10% or greater; mark no for anything smaller.

Here's what some known entries look like.
CC(=O)N1CCN(c2ccc(OCC3COC(Cn4ccnc4)(c4ccc(Cl)cc4Cl)O3)cc2)CC1 (centres unmarked) [Ketoconazole, ketoconazole, reference compound]: yes
O=c1c(O[C@@H]2O[C@H](CO)[C@@H](O)[C@H](O)[C@H]2O)c(-c2ccc(O)c(O)c2)oc2cc(O)cc(O)c12 [Isoquercitrin, isoquercitrin]: yes
O=c1c(O)c(-c2ccc(O)cc2)oc2cc(O)cc(O)c12 [Kaempferol, kaempferol]: yes
O=c1c(O)c(-c2ccc(O)c(O)c2)oc2cc(O)cc(O)c12 [Quercetin, quercetin]: yes

Kindly review the next compound as well.
Inquiry: I'd appreciate it if you could say whether O=c1c(O[C@@H]2O[C@H](CO)[C@@H](O)[C@H](O)[C@H]2O)c(-c2ccc(O)cc2)oc2cc(O)cc(O)c12 [Astragalin, astragalin] has inhibition at 45 min, 0.1 µM at least equal to 10%.
Reply text: no

###

Below, each entry is listed with its recorded inhibition at 60 min, 1 µM.
target or test system: CYP2E1 (Rattus norvegicus, UniProt P05182)
procedure details: 4-Nitrophenol 2-hydroxylation assay for CYP2E1 in rat liver microsomes
assay context: rat, liver microsomes, pH 7.4, probe 4-nitrophenol (2-hydroxylation to 4-nitrocatechol)
Method: The rats were fasted for 12 h with free access to water and then sacrificed by cervical dislocation. The liver was removed promptly and washed with ice-cold physiological saline solution to yellowish brown. The liver tissue was cut into pieces as small as possible and the liver homogenate solution of 25% with phosphate buffer (pH 7.4) was processed at 0 to 4 °C by a tissue homogenizing machine. […] Protein concentration of the microsomes was determined by the method of Bradford. […]
Give the value in % but do not write % after it.

O=c1c(O[C@@H]2O[C@H](CO)[C@@H](O)[C@H](O)[C@H]2O)c(-c2ccc(O)cc2)oc2cc(O)cc(O)c12: 14

API: the following record is the query input.
Inquiry: // query inhibition at 60 min, 1 µM value for entry `O=c1c(O[C@@H]2O[C@H](CO)[C@@H](O)[C@H](O)[C@H]2O)c(-c2ccc(O)c(O)c2)oc2cc(O)cc(O)c12`
Reply text: 18.9

###

target or test system: CYP2E1 (Rattus norvegicus, UniProt P05182)
procedure details: 4-Nitrophenol 2-hydroxylation assay for CYP2E1 in rat liver microsomes
assay context: rat, microsomes, pH 7.4
Procedure: The rats were fasted for 12 h with free access to water and then sacrificed by cervical dislocation. The liver was removed promptly and washed with ice-cold physiological saline solution to yellowish brown. The liver tissue was cut into pieces as small as possible and the liver homogenate solution of 25% with phosphate buffer (pH 7.4) was processed at 0 to 4 °C by a tissue homogenizing machine. […] Protein concentration of the microsomes was determined by the method of Bradford. […]
Below, each entry is listed with its recorded inhibition at 60 min, 0.25 µM.

Some entries whose results are on file:
Cc1ncsc1CCCl [Clomethiazole, clomethiazole, reference compound]: 18.5%
O=c1c(O)c(-c2ccc(O)cc2)oc2cc(O)cc(O)c12 [Kaempferol, kaempferol]: 0.97%

Inquiry: Which inhibition at 60 min, 0.25 µM is listed for O=c1c(O)c(-c2ccc(O)c(O)c2)oc2cc(O)cc(O)c12 [Quercetin, quercetin] ?
Reply text: 3.68%

All values here come from paper PMC6273018.
